Entries and their IR, binding relative to human insulin values follow.
target: purified recombinant human insulin receptor-exon 11 (human) (UniProt P06213); experiment: competition with 125I-insulin (SPA)
Sequence (P06213 other isoform, or with tags, fused parts or gaps limits assumed, form in doubt): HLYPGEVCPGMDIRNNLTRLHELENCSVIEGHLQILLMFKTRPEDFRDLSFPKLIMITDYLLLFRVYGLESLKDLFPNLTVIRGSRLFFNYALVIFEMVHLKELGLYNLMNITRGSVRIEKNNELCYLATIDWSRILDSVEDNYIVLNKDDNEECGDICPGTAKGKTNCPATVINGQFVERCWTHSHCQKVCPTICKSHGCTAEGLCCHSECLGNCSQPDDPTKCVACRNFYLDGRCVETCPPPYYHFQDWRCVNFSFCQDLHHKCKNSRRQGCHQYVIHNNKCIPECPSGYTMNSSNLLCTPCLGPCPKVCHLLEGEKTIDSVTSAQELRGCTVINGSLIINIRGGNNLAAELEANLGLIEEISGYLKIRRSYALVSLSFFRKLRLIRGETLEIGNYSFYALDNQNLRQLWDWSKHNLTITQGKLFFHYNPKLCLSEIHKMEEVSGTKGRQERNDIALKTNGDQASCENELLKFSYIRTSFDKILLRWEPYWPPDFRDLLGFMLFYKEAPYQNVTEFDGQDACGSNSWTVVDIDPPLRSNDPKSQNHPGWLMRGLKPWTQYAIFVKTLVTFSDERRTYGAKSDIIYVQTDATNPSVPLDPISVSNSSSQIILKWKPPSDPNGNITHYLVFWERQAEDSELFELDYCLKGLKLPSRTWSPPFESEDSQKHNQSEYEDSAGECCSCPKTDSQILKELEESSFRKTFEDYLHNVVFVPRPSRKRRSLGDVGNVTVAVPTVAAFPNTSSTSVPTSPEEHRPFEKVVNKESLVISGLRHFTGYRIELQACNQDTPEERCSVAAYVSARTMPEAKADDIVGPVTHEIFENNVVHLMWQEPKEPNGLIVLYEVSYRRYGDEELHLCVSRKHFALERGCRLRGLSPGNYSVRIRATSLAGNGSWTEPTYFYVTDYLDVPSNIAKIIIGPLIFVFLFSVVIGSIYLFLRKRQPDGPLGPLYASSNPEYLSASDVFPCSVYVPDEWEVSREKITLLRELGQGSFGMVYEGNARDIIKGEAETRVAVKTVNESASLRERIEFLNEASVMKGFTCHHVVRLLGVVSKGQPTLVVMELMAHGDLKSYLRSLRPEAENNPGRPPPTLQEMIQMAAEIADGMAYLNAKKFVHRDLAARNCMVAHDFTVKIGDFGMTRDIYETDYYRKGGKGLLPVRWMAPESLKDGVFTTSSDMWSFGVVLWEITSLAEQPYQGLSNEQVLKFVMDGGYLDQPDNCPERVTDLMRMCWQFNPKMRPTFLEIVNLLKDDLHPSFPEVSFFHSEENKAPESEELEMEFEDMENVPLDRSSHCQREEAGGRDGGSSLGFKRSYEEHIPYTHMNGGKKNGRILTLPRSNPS
Answer format reminder: number followed by unit.

Answered examples (3):
single-chain insulin PAK 1846, connecting peptide TGLGKGR [B29A_A18Q] (from UniProt P01308 25-53; P01308 90-110) (ligand): 92%
single-chain insulin PAK 1769062, connecting peptide PVGSSSGK [A18Q_A21G] (from UniProt P01308 25-53; P01308 90-110) (ligand): 56%
single-chain insulin PAK 1854, connecting peptide VGLYSGK [B29E_A18Q] (from UniProt P01308 25-53; P01308 90-110) (ligand): 40%

Consider the substance single-chain insulin PAK 1876, connecting peptide VGLSSGQ [B27K_B29A_A18Q] (from UniProt P01308 25-53; P01308 90-110) (ligand) and give its measured IR, binding relative to human insulin. 38%
